Can you tell me IC50 for the items I'm about to list?
# subject-of-test: UniProt Q8IL11
# Sequence (Q8IL11 whole entry): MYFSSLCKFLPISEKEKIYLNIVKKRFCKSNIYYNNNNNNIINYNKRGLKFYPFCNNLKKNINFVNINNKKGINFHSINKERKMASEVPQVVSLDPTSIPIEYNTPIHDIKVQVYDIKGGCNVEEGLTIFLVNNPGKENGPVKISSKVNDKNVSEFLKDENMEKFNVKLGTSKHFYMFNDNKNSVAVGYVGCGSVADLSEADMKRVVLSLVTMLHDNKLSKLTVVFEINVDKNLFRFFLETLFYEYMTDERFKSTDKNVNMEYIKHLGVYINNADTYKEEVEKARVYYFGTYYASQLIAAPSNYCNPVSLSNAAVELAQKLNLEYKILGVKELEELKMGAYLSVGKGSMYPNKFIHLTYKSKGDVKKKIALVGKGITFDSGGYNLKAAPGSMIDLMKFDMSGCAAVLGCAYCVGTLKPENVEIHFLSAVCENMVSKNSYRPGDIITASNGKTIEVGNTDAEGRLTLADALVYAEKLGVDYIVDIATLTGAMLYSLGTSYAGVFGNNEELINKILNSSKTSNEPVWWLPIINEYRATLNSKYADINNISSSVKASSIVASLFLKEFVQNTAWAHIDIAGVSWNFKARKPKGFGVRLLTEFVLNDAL
# test-name: P. falciparum M17LAP inhibitors, primary screen, biochemical, fluorogenic H-Leu-NHMec substrate, 1536-well (AID 1619)
# Format: functional
Active and inactive are the calls of the source. The rule behind the calls is not given here.

Data request: Look at this compound and give its reported IC50. `O=C(OCC(=O)N1CCCC1)c1ccccc1OCc1ccccc1`
Data returned: 4.38 µM (active)

Data request: Same again, this time with `CN(C)c1ccc(C=C2C(=O)NC(=S)NC2=O)cc1[N+](=O)[O-]`
Data returned: 76.6 µM (active)

Data request: Same lookup for Cc1ccc(-c2[nH]nc3c2C(c2cccnc2)C(C#N)=C(N)O3)cc1 (stereo not given) , please.
Data returned: 25.8 µM (active)

Data request: Input `O=C(O)COc1ccccc1/C=N/NC(=O)c1cccc(S(=O)(=O)Nc2cccc(Cl)c2)c1`
Data returned: 21.3 µM (active)

Data request: Now consider O=C(O)CCN1C(=O)CC(N2C(=O)/C(=C/c3ccc(Cl)cc3)SC2=S)C1=O (stereo not given) and answer again.
Data returned: 22.5 µM (active)
